Origin of the recorded values: patent US20170022281A1

# Tested on: T1, human PRLR on cells (human, UniProt P16471 25-622)
# T1 sequence: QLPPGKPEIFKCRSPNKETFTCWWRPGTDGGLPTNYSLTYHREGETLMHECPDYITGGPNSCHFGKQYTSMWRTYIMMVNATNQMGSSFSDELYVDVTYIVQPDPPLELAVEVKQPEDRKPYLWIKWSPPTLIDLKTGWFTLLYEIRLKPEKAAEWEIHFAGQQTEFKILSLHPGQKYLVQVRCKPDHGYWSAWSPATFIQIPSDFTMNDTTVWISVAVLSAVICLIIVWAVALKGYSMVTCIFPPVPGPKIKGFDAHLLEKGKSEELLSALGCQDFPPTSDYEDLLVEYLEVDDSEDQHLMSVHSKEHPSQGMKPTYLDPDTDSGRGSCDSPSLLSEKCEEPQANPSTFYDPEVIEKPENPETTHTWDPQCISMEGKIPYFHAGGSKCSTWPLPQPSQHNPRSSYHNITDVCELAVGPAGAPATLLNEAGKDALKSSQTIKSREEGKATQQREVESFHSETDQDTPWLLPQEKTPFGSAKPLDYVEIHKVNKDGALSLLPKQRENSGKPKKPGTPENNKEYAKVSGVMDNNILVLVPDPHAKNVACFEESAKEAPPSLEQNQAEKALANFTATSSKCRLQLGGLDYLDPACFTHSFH
# Test: cell-based or functional assay
Measure: T47D pPRLR ELISA IC50 (µg/mL)
# value in µg/mL; strip the unit string

[[record]]
binder = "Ab8 (antibody, V domains shown, murine monoclonal, isotype G2b; also called murine Ab8) VH: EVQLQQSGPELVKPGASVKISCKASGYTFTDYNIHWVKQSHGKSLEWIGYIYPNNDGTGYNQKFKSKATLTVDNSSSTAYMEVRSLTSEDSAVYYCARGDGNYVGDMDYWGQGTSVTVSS VL: DIQMTQSPASLSASVGETVTITCRASENIYSYLAWYQQKQGKPPQLLVYNAKTLAEGVPSRFSGGGSGTQFSLKINSLQPEDFGSYYCQHHYATPFTFGSGTKLEIK"
number = 0.219


Requested field: T47D pPRLR ELISA IC50. Item: Ab11 (antibody, V domains shown, murine monoclonal, isotype G1; also called murine Ab11) VH: EVKLVESGGGLVQPGGSLKLSCAASGFTFSDYYMFWVRQTPEKSLEWVAYISNGGGSTYYPDTVKGRFTISRDNAKNTLYLQMSRLKSEDTAMYYCSRQLFYYGSRGAMGYWGQGTSVTVSS VL: DVLMTQTPLSLPVSLGDQASISCRSSQSIVHSNGNTYLEWYLQKPGQSPKLLIYKVSNRFSGVPDRFSGSGSGTDFTLKISRVEAEDLGVYYCFQGSHVPFTFGSGTKLEIK 0.047
